src = patent US9351940B2

Experiment: Water solubility of KTZ in aqueous suspension without polymer
Format: physicochemical
Details: kinetic from dmso stock, aqueous suspension after precipitation from alcoholic solution, no polymer
value_kind: solubility

Q: What solubility value was documented for this compound, CC(=O)N1CCN(c2ccc(OCC3COC(Cn4ccnc4)(c4ccc(Cl)cc4Cl)O3)cc2)CC1 (stereo not shown) [KTZ, Ketoconazole] ?
Result: ~11 µg/mL
